- TARGET_ENTITY: GRIP2_7, Q9C0E4
- Sequence (Q9C0E4 934-1023): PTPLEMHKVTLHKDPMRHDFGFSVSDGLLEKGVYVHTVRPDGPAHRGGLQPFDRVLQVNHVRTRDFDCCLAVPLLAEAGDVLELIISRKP
- ASSAY_NOTES: holdup assay
- Design: key: below the threshold = too weak to quantify, mostly under pKd 3.1 to 4
- CONDITION_INFO: plain residues with an end cap or a label only (N-terminal biotin on a linker: ttds)
MEASURED_ATTRIBUTE: pKd

{"BINDER": "EVVHTPETSV [SLC16A3, O15427]", "MEASURED_ATTRIBUTE": "pKd", "MEASURED_RESULT": "below the threshold"}
{"BINDER": "PVRVCEETSL [OTULIN, Q96BN8]", "MEASURED_ATTRIBUTE": "pKd", "MEASURED_RESULT": 3.66}
{"BINDER": "SSLQSLETSV [ATP2B4, P23634]", "MEASURED_ATTRIBUTE": "pKd", "MEASURED_RESULT": 3.52}
{"BINDER": "RLQRRRETQV [HPV18-E6, P06463]", "MEASURED_ATTRIBUTE": "pKd", "MEASURED_RESULT": "below the threshold"}
{"BINDER": "SKPTRRETEV [HPV35-E6, P27228]", "MEASURED_ATTRIBUTE": "pKd", "MEASURED_RESULT": "below the threshold"}
{"BINDER": "NDPAWDETNL [ARHGEF7, Q14155;Q14155-1]", "MEASURED_ATTRIBUTE": "pKd", "MEASURED_RESULT": "below the threshold"}

Could you tell me which pKd is on file for PRVKPQRSKV [PPP1R13L, Q8WUF5] ?
below the threshold

Could you tell me which pKd is on file for RHTTSTETAV [HPV30-E6, P36809] ?
3.84
